Hey, just so you know, these numbers are from ChEMBL document CHEMBL1201862.

Tested on: SF-539
Assay Protocol: NCI tumour cell line growth inhibition, 48 h
Calls of active or inactive are those of the source. Rule as the data show it: active = GI50 up to about 1.1 µM and inactive = higher.
The following compounds are shown together with reported GI50 values.
Outcome Measure: GI50

# Compound, Outcome Measure, Reported Result
data = [
    ("CC1=C/C(=N\\OCC(=O)O)CC(c2ccc(C(C)C)cc2)C1 (stereo not given)", "GI50", "93.1 µM (inactive)"),
    ("COc1c(OC(C)C)c(OC(C)C)c2oc(=O)n3c2c1C(c1ccccc1-n1c(C)ccc1C)C=C3 (stereo not given)", "GI50", "67.5 µM (inactive)"),
    ("C/C1=N\\[N-]C(=O)c2ccccc2C(=O)N/N=C(\\C)c2cccc1n2.O=[N+]([O-])[O-].[Zn+2]", "GI50", "> 100 µM (inactive)"),
    ("CC1OC(OC2C(OC3CCC4(C)C(CCC5(C)C4CC=C4C6CC(C)(C)CCC6(C(=O)O)CCC45C)C3(C)CO)OCC(O)C2O)C(O)C(O)C1O (stereo not given)", "GI50", "15.5 µM (inactive)"),
    ("O=C1OC(c2ccc(Cl)c3ccccc23)c2ccccc21 (stereo not given)", "GI50", "> 100 µM (inactive)"),
]

---

Listed next: entries and their corresponding GI50.
Test system: A498
Assay Protocol: NCI tumour cell line growth inhibition, 48 h
Calls of active or inactive are those of the source. No stated cut-off is given here; in the data, active = GI50 up to about 1.1 µM and inactive = higher.
Outcome Measure: GI50

# Compound, Target Of Assay, Outcome Measure, Reported Result
data = [
    ("COc1ccc(NC(=O)CC(=O)n2nc(-c3ccccc3)c(/N=N/c3ccc(C)cc3)c2-c2ccccc2)cc1", "A498", "GI50", "> 49.3 µM (inactive)"),
    ("N#CC(C#N)=C1c2ccccc2C(=NN)c2ccccc21", "A498", "GI50", "> 28.7 µM (inactive)"),
    ("CCC(=O)C1(c2ccccc2)CCN(C)CC1", "A498", "GI50", "> 100 µM (inactive)"),
    ("O=C1/C(=C/c2cccc([N+](=O)[O-])c2)COc2ccc(Br)cc21", "A498", "GI50", "> 100 µM (inactive)"),
    ("Nc1nc[n+](Cc2ccccc2)c2ncn(Cc3ccccc3)c12", "A498", "GI50", "55.1 µM (inactive)"),
    ("Cc1c(C(=O)OCc2ccccc2)[n+]([O-])c2ccccc2[n+]1[O-]", "A498", "GI50", "36.1 µM (inactive)"),
    ("N#Cc1c(-c2ccc(Cl)cc2)cc(-c2ccc(Nc3ccnc4cc(Cl)ccc34)cc2)nc1N", "A498", "GI50", "> 100 µM (inactive)"),
    ("Cn1c(=O)c2sc3cc4c(cc3c2c2ccccc21)sc1c(=O)n(C)c2ccccc2c14", "A498", "GI50", "> 100 µM (inactive)"),
    ("Oc1ccc(SCc2ccc(NCc3ccccc3)cc2)cc1", "A498", "GI50", "20.1 µM (inactive)"),
    ("C=CCOc1ccc(C(/N=N\\c2ccc(Cl)cc2)=N/NC(=O)c2ccccc2)cc1OC", "A498", "GI50", "> 100 µM (inactive)"),
    ("CC1OC(OC2C(OC3CCC4(C)C(CCC5(C)C4CC=C4C6CC(C)(C)CCC6(C(=O)O)CCC45C)C3(C)CO)OCC(O)C2O)C(O)C(O)C1O (stereo not drawn)", "A498", "GI50", "14.2 µM (inactive)"),
    ("Cc1ccc([N+](=O)[O-])cc1S(=O)(=O)Nc1ccc(C2=NN(S(=O)(=O)c3cc([N+](=O)[O-])ccc3C)C(c3ccccc3O)C2)cc1 (stereo not drawn)", "A498", "GI50", "10.4 µM (inactive)"),
    ("COP(=O)(Cc1ccc(/C=C/C#N)o1)OC", "A498", "GI50", "> 100 µM (inactive)"),
    ("COc1cc(-c2cc(=O)c3cc4c(=O)cc(-c5cc(OC)c(OC)c(OC)c5)oc4cc3o2)cc(OC)c1OC", "A498", "GI50", "24.7 µM (inactive)"),
    ("CC(C)N(C(C)C)P(OCCC#N)OC1CC(n2cnc3c(=O)[nH]cnc32)OC1COC(=O)NCCCCCCNC(=O)OC(C)(C)c1ccc(-c2ccccc2)cc1 (stereo not drawn)", "A498", "GI50", "> 100 µM (inactive)"),
    ("NC1CC(=O)c2sccc21 (stereo not drawn)", "A498", "GI50", "> 100 µM (inactive)"),
    ("COC1C(O)C(C)OC(OC2C(Oc3cccc4c(O)c5c(=O)oc6ccc(C)c7c(=O)oc(c34)c5c67)OC(C)C(O)C2O)C1O (stereo not drawn)", "A498", "GI50", "2.04 µM (inactive)"),
    ("CC(=O)NNc1nc(C)c(C(=O)NNC(=O)C(=O)Nc2c(C)cccc2C(C)C)s1", "A498", "GI50", "51.4 µM (inactive)"),
    ("CC(C)(C)C1CCC(CI)(N=[N+]=[N-])CC1 (stereo not drawn)", "A498", "GI50", "> 100 µM (inactive)"),
    ("C[C@H]1OC(=O)[C@@H]2N=NN(Cc3ccccc3)[C@H]12", "A498", "GI50", "> 100 µM (inactive)"),
    ("O=C(CCC(C(=O)OCc1ccccc1)C(=O)OCc1ccccc1)Nc1ccc(OCc2ccccc2)cc1", "A498", "GI50", "21 µM (inactive)"),
    ("CCOP(=O)(OCC)/C(C#N)=C/c1nccn1C", "A498", "GI50", "> 100 µM (inactive)"),
    ("COc1cc(C2c3[nH]c4ccccc4c3C[C@H]3COC(=O)N23)cc(OC)c1OC (stereo partly drawn)", "A498", "GI50", "0.0745 µM (active)"),
    ("CCOn1cc(C[C@@]2(O)C(=O)OC3[C@@H](O)CO[C@@]32O)c2ccccc21 (stereo partly drawn)", "A498", "GI50", "1.94 µM (inactive)"),
    ("NC(CSC(c1ccccc1)(c1ccccc1)c1ccccc1)C(=O)O (stereo not drawn)", "A498", "GI50", "1.51 µM (inactive)"),
    ("COc1ccc(C2=NOC(N)(c3ccc(OC)cc3)C2)cc1 (stereo not drawn)", "A498", "GI50", "29 µM (inactive)"),
    ("O=[N+]([O-])c1ccc(C2CC(c3ccccc3Cl)=Nc3ccccc3S2)cc1 (stereo not drawn)", "A498", "GI50", "1.87 µM (inactive)"),
    ("C/C=C/[C@H]1O[C@@](O)([C@@H](C)[C@H](O)[C@H](C)[C@H]2OC(=O)/C(OC)=C/C(C)=C/[C@@H](C)[C@@H](O)[C@@H](CC)[C@@H](O)[C@H](C)C/C(C)=C/C=C/[C@@H]2OC)C[C@H](OC2CC(O)C(OC(N)=O)C(C)O2)[C@@H]1C (stereo partly drawn)", "A498", "GI50", "18.8 µM (inactive)"),
    ("CN(CCCNC(=O)c1nn(-c2ccc(Cl)cc2Cl)c2c1Cc1ccccc1-2)CCCNC(=O)c1nn(-c2ccc(Cl)cc2Cl)c2c1Cc1ccccc1-2", "A498", "GI50", "1.71 µM (inactive)"),
    ("CCN(CC)C(=O)CCNC(C)Cc1c[nH]c2ccccc12 (stereo not drawn)", "A498", "GI50", "> 100 µM (inactive)"),
    ("Cc1cc2c(C(C)C)c(O)c(O)c(C=O)c2c(O)c1-c1c(C)cc2c(C(C)C)c(O)c(O)c(C=O)c2c1O", "A498", "GI50", "4.47 µM (inactive)"),
    ("CNC(N)NC", "A498", "GI50", "> 100 µM (inactive)"),
    ("COc1c(OC(C)C)c(OC(C)C)c2oc(=O)n3c2c1C(c1ccccc1-n1c(C)ccc1C)C=C3 (stereo not drawn)", "A498", "GI50", "92.5 µM (inactive)"),
    ("CCOC(=O)C1=C(OC(OCC)C(C)[Se]c2ccccc2)CCC1 (stereo not drawn)", "A498", "GI50", "> 100 µM (inactive)"),
    ("c1ccc(CN(Cn2cccn2)Cn2cccn2)nc1", "A498", "GI50", "> 100 µM (inactive)"),
    ("CN(C)CCN1C(=O)c2cccc3cc([N+](=O)[O-])cc(c23)C1=O [MITONAFIDE]", "A498", "GI50", "0.167 µM (active)"),
    ("COC(=O)c1cccc(C)c1C1CN=NC12Cc1cc(C)cc(C)c1C2=O (stereo not drawn)", "A498", "GI50", "51.5 µM (inactive)"),
    ("CN1CCc2ccccc2C1Cc1ccccc1NC(=O)c1sc2ccccc2c1Cl (stereo not drawn)", "A498", "GI50", "> 100 µM (inactive)"),
]
